# testProtocol: Human HepG2 cell viability assay in 384 well format
# Type: toxicity, cell-based
# Parameters: dose 125 nL, time 70.5 hour; concentration not given beside the values
# experimentalContext: HepG2 cells, read-out: Inhibition
Can you tell me cytotoxicity at 70.5 h for the items I'm about to list?
One number for each entry, in %.

Examples from the recorded data:
compound	unitsSymbol	cytotoxicity at 70.5 h
CS(=O)(=O)Nc1nn(Cc2ccc(F)cc2)cc1Br	%	-3.65
N#CCc1ccc(OCC(=O)NS(=O)(=O)c2ccc(Cl)s2)cc1	%	-7.69
CN1CCN(c2cccc(Cl)c2CNCCS(C)(=O)=O)CC1	%	-8.06

Parameter requested: cytotoxicity at 70.5 h. Apply to each item below.
1. CC(=O)N1CCN([C@@H]2CN(C(=O)c3ccccc3C)C[C@H]2O)CC1
2. CCS(=O)(=O)N1CC[C@H](OC)[C@H]2CN(Cc3ccncc3)C[C@H]21
3. O=C1CCC(C(=O)N(Cc2ccsc2)CC2CCCO2)=NN1 (centres undefined)

-3.99
-3.99
-0.382

Parameter requested: cytotoxicity at 70.5 h. Apply to each item below.
1. CC(CNS(C)(=O)=O)Oc1cccc(Cl)c1 (centres undefined)
2. CN(CCCOc1ccccc1Cl)C(=O)CN1CCCCCC1=O
3. O=S(=O)(NCCn1cc(C2CCOC2)nn1)c1ccc(Cl)cc1 (centres undefined)

[3.7, -0.255, 17.5]

Parameter requested: cytotoxicity at 70.5 h. Apply to each item below.
1. Cc1cccn2c(=O)cc(CSCC(=O)Nc3nnc(C(C)C)s3)nc12
2. CC(=O)N1CCC2(CC1)CC(N1CCOCC1)c1ccc(C)cc12 (centres undefined)
3. CC(C)(C(N)=O)S(=O)(=O)c1ccc(Br)cc1

1: 1.52; 2: -8.04; 3: -6.61

Parameter requested: cytotoxicity at 70.5 h. Apply to each item below.
1. CN(C)c1ncc(CNC2CC(=O)N(CCc3cccc(Cl)c3)C2)s1 (centres undefined)
2. Cc1noc(C)c1CN1CCCC(c2noc(C3CC3)n2)C1 (centres undefined)
3. CN(CCS(C)(=O)=O)C1CCCN(Cc2noc(C3CC3)n2)C1 (centres undefined)
4. O=C(COc1ccccc1N1CCCC1)N1CCN[C@H]2CS(=O)(=O)C[C@H]21
5. Fc1ccc(NCc2ccncc2)c(OC(F)F)c1
6. CC(NCC(=O)NCC(=O)Nc1ccc(F)cc1)c1cccs1 (centres undefined)
7. O=C(C(CNCc1ccccc1O)c1ccccc1)N1CCOCC1 (centres undefined)

[-4.44, -7.9, 17.9, -7.17, -5.76, -17.8, -2.58]

Parameter requested: cytotoxicity at 70.5 h. Apply to each item below.
1. O=C(Cn1cccnc1=O)NC(Cc1ccsc1)c1nccs1 (centres undefined)
2. Cc1ccccc1[C@@H]1CN(Cc2c(C)noc2C)C[C@H]1C(=O)O
3. NC(=O)C1=NC2=NS(=O)(=O)c3ccccc3N2N1Cc1ccc(Cl)cc1
4. CC(C)Cc1nc(CS(=O)(=O)C(C)C(=O)N2CCOCC2)no1 (centres undefined)
5. CCCNC(=O)C1(Cc2cc(-c3ccccc3)no2)CCN(C(C)=O)C1 (centres undefined)

[17.6, 21.7, 1.74, -7.75, 3.68]

Parameter requested: cytotoxicity at 70.5 h. Apply to each item below.
1. CCc1nc(CN2CCCC(N(C)Cc3cnc(C)s3)C2)no1 (centres undefined)
2. COc1ccc(C(=O)C2CCCN(Cc3ccc(C)o3)C2)c(OC)c1 (centres undefined)

1: -2; 2: -4.07

Parameter requested: cytotoxicity at 70.5 h. Apply to each item below.
1. Cc1cc(NC(=O)CN2CCc3c(nc(C(C)C)n3C)C2)on1
2. Cc1ccc(C(=O)N2CCc3c(COCC4CC4)cncc3C2)o1
3. COc1cccc(COCC(=O)N2CCCC(n3cccn3)C2)c1 (centres undefined)
4. CCN(CCC1CCN(C(=O)NCc2nncn2CC)CC1)CC1CC1
5. Cc1cc(C(=O)N2CCCC3(COCCN(c4ccccc4)C3)C2)[nH]n1 (centres undefined)
6. CCn1cnnc1CNC(=O)NCC(C)(CC)N1CCOCC1 (centres undefined)
7. CCOCCOC(C)C(=O)Nc1ccc2[nH]c(C)cc2c1 (centres undefined)

1: -14.3; 2: 18.4; 3: -4.65; 4: 15.6; 5: -10.7; 6: -9.65; 7: -8.04

Parameter requested: cytotoxicity at 70.5 h. Apply to each item below.
1. CC(C)c1nc(CN2CCC(CO)CC2)cs1
2. c1cnc(-c2nc(CN3CCOC(Cn4cncn4)C3)cs2)nc1 (centres undefined)
3. CCN1C[C@H]2C3(CCN(S(=O)(=O)CC)CC3)CC[C@@]2(C(=O)N(C)C)C1
4. Cc1ccc(O)c(C(=O)N2C[C@@H](C(=O)O)[C@H](c3ccccc3)C2)c1
5. Cc1nn(C)c(C)c1NC(=O)c1cccc(CN2CC[C@H](O)C2)c1
6. c1cncc(COCc2nnc3n2CCN(Cc2ccsc2)C3)c1

[34.5, 11.7, -4.85, 0.313, -0.546, -2.47]
